Molecular target: T1, GST–PPARγ fusion protein (purified ligand binding domain of PPARγ)
T1 chain: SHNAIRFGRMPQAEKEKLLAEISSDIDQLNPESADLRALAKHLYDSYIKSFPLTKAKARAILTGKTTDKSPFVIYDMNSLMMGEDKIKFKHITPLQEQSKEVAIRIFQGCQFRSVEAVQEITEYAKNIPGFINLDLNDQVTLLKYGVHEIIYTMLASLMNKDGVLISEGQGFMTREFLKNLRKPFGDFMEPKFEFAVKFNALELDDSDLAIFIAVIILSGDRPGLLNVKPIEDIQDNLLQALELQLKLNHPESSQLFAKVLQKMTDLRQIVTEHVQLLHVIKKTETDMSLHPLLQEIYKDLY
Test: FRET or BRET; homogeneous TR-FRET as a1, 12-concentration dose–response of farglitazar; the EC50 is of the compound; delta ratio in % of the reference compound edaglitazone at 10 μM
Details: both partners purified
Where no end group is shown, it is not given here. The star is where a group is joined. Biotin = O=C1N[C@H]2[C@H](CS[C@H]2CCCCC(=O)*)N1; Ahx = NCCCCCC(=O)O
Under this convention, Yes denotes EC50 of farglitazar for recruitment strictly below 6 nM and No denotes EC50 of farglitazar for recruitment at or above 6 nM.

Example entries and their recorded answers appear below.
{"columns": ["BINDER", "ASSIGNED_CATEGORY"],
 "data": [
  ["{Biotin-Ahx}-GNTKNHPMLMNLLKDNPAQDF (thyroid hormone receptor-associated protein complex 220 kDa component (TRAP220), motif 2, residues 637-657; also called TRAP220_M2; TRAP220 M2; source: synthetic peptide (Jerini or Biosynthan, Berlin))", "Yes"],
  ["{Biotin-Ahx}-LDASKKKESKDHQLLRYLLDKDEKD (source: synthetic peptide (Jerini or Biosynthan, Berlin)) [SRC1_M3 cofactor peptide (steroid receptor co-activator 1, motif 3)]", "No"],
  ["{Biotin-Ahx}-SNMHGSLLQEKHRILHKLLQNGNSP (source: synthetic peptide (Jerini or Biosynthan, Berlin)) [RAC3_M2 cofactor peptide (receptor-associated co-activator 3, motif 2)]", "No"],
  ["{Biotin-Ahx}-TSGPQTPQAQQKSLLQQLLTE (source: synthetic peptide (Jerini or Biosynthan, Berlin)) [SRC1_M4 cofactor peptide (steroid receptor co-activator 1, motif 4)]", "Yes"],
  ["{Biotin-Ahx}-DSKYSQTSHKLVQLLTTTAEQQLRH (source: synthetic peptide (Jerini or Biosynthan, Berlin)) [SRC1_M1 cofactor peptide (steroid receptor co-activator 1, motif 1)]", "No"]
]}

**Query** In the record for {Biotin-Ahx}-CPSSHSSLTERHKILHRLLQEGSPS (source: synthetic peptide (Jerini or Biosynthan, Berlin)) [SRC1_M2 cofactor peptide (steroid receptor co-activator 1, motif 2)] , is EC50 of farglitazar for recruitment less than 6 nM?
**Result** Yes

**Query** In the record for {Biotin-Ahx}-SGNLVPDAASKHKQLSELLRGGSGS (source: synthetic peptide (Jerini or Biosynthan, Berlin)) [CBP cofactor peptide (cAMP responsive element binding protein (CREB)-binding protein)] , is EC50 of farglitazar for recruitment less than 6 nM?
**Result** Yes

**Query** In the record for {Biotin-Ahx}-SRLHDSKGQTKLLQLLTTKSD (transcriptional intermediary factor 2 (TIF2), motif 1, residues 630-650; source: synthetic peptide (Jerini or Biosynthan, Berlin)) [TIF2_M1 cofactor peptide (transcriptional intermediary factor 2, motif 1)] , is EC50 of farglitazar for recruitment less than 6 nM?
**Result** No

Reference for the values: paper PMC3504387
